// data source = PubChem BioAssay AID1347416

Assay: qHTS Validation assay for Inhibitors of Plasmodium falciparum Dd2 growth in vitro; further: nearly all actives have a fitted effect of over 70% in size
Settings: P. falciparum Dd2 in RBCs, SYBR Green growth, 72 h; series mostly up to 28.7 µM
Out of some 4,100 compounds screened, about 1,600 (39%) were called active. Another 25% or so got no clear call; they are omitted. The call rests on the fitted dose curve; in most records, active means well fitted inhibition curve with a large enough effect; inconclusive means small, poorly fitted or top-dose-only effect; inactive means no such curve, though single readings can be large or run the other way. This is one part of the list.
Outcome codes: true = active, false = inactive

INSERT INTO assay_data (compound, assigned_label) VALUES
  ('O=C1CC(c2ccccc2)N(S(=O)(=O)c2cccc(F)c2)CCCCCN1 (configuration not stated)', 'false'),
  ('COc1cnc(-c2ccccn2)nc1Oc1ccc(C(C)(C)C)cc1', 'false'),
  ('COc1ccc(OC)c(CCNC(=O)c2nc(-c3ccc(Cl)cc3)n3c2CCCCC3)c1', 'false'),
  ('Cc1nc(-c2ccccn2)nc(N(C)c2ccccc2)c1Cl', 'true'),
  ('O=C1CC(c2ccccc2)N(Cc2ccncc2)CCCN(S(=O)(=O)c2cccc(F)c2)CCN1 (configuration not stated)', 'true'),
  ('O=C(Nc1cccnc1)c1ccc(Cl)c(S(=O)(=O)N2CCc3ccccc32)c1', 'false'),
  ('CN1N=C2c3ccccc3CCC2C1c1ccc(F)cc1 (configuration not stated)', 'true');

----------
Experiment: qHTS Validation assay for Inhibitors of Plasmodium falciparum Dd2 growth in vitro; further: nearly all actives have a fitted effect of over 70% in size
Settings: P. falciparum Dd2 in RBCs, SYBR Green growth, 72 h; series mostly up to 28.7 µM
The whole screen tested about 4,100 compounds, of which about 1,600 (39%) were called active. Inconclusive results (about 25%) are left out. Calls follow the shape of the dose curve; as a rule, active = well fitted inhibition curve with a large enough effect; inconclusive = small, poorly fitted or top-dose-only effect; inactive = no such curve, though single readings can be large or run the other way. This is one part of the list.
Outcome codes: true for active, false for inactive

INSERT INTO measurements (compound, assigned_label) VALUES
  ('O=C(COc1ccc(Cl)cc1)N1C[C@@H](CO)[C@H](c2ccccn2)C1', 'false'),
  ('O=C(c1ccc(C(F)(F)F)cc1)N1CCC2(CC1)C(=NC1CCCCC1)NC(=O)N2c1cc(F)cc(F)c1', 'false'),
  ('O=C(N[C@H]1CO[C@H]2[C@@H]1OC[C@@H]2n1cc(-c2ccccc2)nn1)c1ccc(C(F)(F)F)cc1', 'false'),
  ('CN1N=C(C(=O)N2CCc3c([nH]c4ccccc34)C2c2ccccc2Cl)CCC1=O (stereo not given)', 'true'),
  ('Cc1ccc(C)c(-c2cc3c(=O)n(CCNC(=O)c4cccc(F)c4)ccn3n2)c1', 'false'),
  ('O=C1NC(=NC2CCCCC2)C2(CCN(Cc3ccc(F)cc3)C2)N1c1cc(F)cc(F)c1 (stereo not given)', 'true'),
  ('CC(C)Oc1ccc2c(c1)OC(c1ccccc1)(C(F)(F)F)NC2=O (stereo not given)', 'true'),
  ('CCOc1cccc(C2c3[nH]c4ccccc4c3CCN2C(=O)CSCc2ccc(F)cc2)c1 (stereo not given)', 'true'),
  ('COc1ccc(-c2cnc3[nH]cc(CC(=O)NCc4cccnc4)c3c2)cn1', 'true'),
  ('CCCS(=O)(=O)N1C[C@@H](COC)[C@H](c2nc(C)no2)C1', 'false'),
  ('O=C(CC[C@@H]1CNC(=O)[C@@H]2C[C@H](NC(=O)Nc3cccc(Cl)c3)CN12)NCc1cccnc1', 'false'),
  ('CN(C)c1ccc(CN2CCC3(C2)C(=NC2CCCC2)NC(=O)N3c2cccnc2)cc1 (stereo not given)', 'false'),
  ('Cc1ccc(S(=O)(=O)Nc2ccc(-c3cn4ccc(C)cc4n3)cc2)cc1', 'true'),
  ('CCOc1ccc2c(c1)OC(c1ccc(C)cc1)(C(F)(F)F)NC2=O (stereo not given)', 'true'),
  ('COc1ccc(/C=N/Nc2cc(C)nc3ccccc23)cc1', 'true');
